Origin of measurements: patent US11319322B2

- target or system: CCDC6-RET-BaF3 (Homo sapiens)
- Construct: fused on or other part: Q16204 (Coiled-coil domain-containing protein 6)
- assay summary: Growth inhibition of CCDC6-RET-BaF3 cells stably transfected with kinase (MTS)
- Assay type: cell-based
- condition: 48 h, read-out: CCDC6-RET (IC50/nM)
quantity: GI50 (nM)

>>> readout_number("Cc1ccc(C(=O)Nc2ccc(CN3CCN(C)CC3)c(C(F)(F)F)c2)cc1Oc1nc(-c2ccc(Cl)cc2)nc2cc[nH]c12")
3770
>>> readout_number("CN1CCN(Cc2ccc(NC(=O)c3cc(Oc4nc(-c5cccc(Cl)c5)nc5c4ncn5C)ccc3Cl)cc2C(F)(F)F)CC1")
1400
>>> readout_number("Cc1ccc(C(=O)Nc2ccc(CN3CCN(C)CC3)c(C(F)(F)F)c2)cc1Oc1nc(N2CCN(C)CC2)nc2c1cnn2C")
1100
>>> readout_number("CCC(=O)NC1CCN(c2ccc(NC(=O)c3ccc(C)c(Oc4nc(-c5ccncc5)nc5ccn(C)c45)c3)cc2C(F)(F)F)CC1")
10900
>>> readout_number("Cc1ccc(C(=O)Nc2ccc(CN3CCN(C)CC3)c(C(F)(F)F)c2)cc1Oc1cc(-c2ccncc2)nc2c1ccn2C")
1240

I. Cc1ccc(C(=O)Nc2cc(CN3CCN(C)CC3)cc(C(F)(F)F)c2)cc1Oc1nc(-c2cccnc2)nc2cc[nH]c12
II. Cc1ccc(Oc2nc(-c3cccc(Cl)c3)nc3nn(C)cc23)cc1C(=O)Nc1ccc(CN2CCN(C)CC2)c(C(F)(F)F)c1
Problem: For the two items I and II , which reports the higher GI50 value? // caller expects the label of the chosen entry
Result: II
(II: 3900 nM, I: 1330 nM)

====

- target or system: KIF5B-RET-BaF3 (Homo sapiens, UniProt P07949)
- Construct: fused on or other part: P33176 (Kinesin-1 heavy chain)
- Sequence (P07949 whole entry, change not shown, the tested form may be a part): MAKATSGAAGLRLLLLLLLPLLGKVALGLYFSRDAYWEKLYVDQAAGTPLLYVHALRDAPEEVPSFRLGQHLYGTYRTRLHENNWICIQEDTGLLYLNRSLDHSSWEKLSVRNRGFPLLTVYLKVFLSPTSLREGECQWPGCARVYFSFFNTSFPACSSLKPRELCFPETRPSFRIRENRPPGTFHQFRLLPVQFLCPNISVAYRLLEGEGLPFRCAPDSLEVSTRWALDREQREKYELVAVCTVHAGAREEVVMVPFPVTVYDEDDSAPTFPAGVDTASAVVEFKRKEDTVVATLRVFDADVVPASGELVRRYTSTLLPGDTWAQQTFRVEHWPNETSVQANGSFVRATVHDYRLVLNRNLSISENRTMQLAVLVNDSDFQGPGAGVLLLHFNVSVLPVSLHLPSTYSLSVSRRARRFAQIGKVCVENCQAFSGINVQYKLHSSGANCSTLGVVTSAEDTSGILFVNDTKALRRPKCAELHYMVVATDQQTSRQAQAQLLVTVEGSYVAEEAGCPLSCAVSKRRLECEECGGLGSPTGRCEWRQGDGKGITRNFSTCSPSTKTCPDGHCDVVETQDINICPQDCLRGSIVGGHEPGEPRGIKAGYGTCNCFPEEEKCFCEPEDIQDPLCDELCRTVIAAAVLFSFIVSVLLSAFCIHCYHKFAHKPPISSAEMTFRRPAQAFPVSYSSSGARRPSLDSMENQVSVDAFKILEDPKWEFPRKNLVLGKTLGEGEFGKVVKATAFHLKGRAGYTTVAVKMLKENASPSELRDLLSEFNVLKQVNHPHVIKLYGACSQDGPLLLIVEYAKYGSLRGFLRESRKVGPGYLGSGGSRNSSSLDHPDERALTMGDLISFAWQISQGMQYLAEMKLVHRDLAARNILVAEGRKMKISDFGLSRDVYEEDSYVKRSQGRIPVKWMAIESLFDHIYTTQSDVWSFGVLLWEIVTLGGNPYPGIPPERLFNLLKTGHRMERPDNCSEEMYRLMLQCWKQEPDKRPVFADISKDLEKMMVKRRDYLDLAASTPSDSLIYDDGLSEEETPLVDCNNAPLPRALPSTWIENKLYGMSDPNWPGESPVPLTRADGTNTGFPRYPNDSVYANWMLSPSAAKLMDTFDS
- assay summary: Growth inhibition of KIF5B-RET-BaF3 cells stably transfected with kinase (MTS)
- Type: cell-based
- condition: 48 h, read-out: KIF5B-RET (IC50/nM)
quantity: GI50 (nM)

Look over these answered cases.
>>> readout_number("Cc1ccc(Oc2cc(-c3ccncc3)nc3c2ccn3C)cc1C(=O)Nc1ccc(CN2CCN(C)CC2)c(C(F)(F)F)c1 [V-n-16]")
388
>>> readout_number("CN1CCN(Cc2ccc(NC(=O)c3cc(Oc4nc(-c5cccnc5)nc5c4ncn5C)ccc3Cl)cc2C(F)(F)F)CC1 [I-o-1]")
1390
>>> readout_number("CN1CCN(Cc2ccc(NC(=O)c3cc(Oc4nc(-c5ccccc5)nc5c4ncn5C)ccc3Cl)cc2C(F)(F)F)CC1 [I-o-3]")
1380
>>> readout_number("Cc1ccc(Oc2nc(-c3ccc(N)cc3)nc3c2ncn3C)cc1C(=O)Nc1ccc(CN2CCN(C)CC2)c(C(F)(F)F)c1 [I-n-10]")
1400
>>> readout_number("CN1CCN(Cc2ccc(C(=O)Nc3cccc(Oc4cc(-c5ccncc5)nc5sccc45)c3)cc2C(F)(F)F)CC1 [VII-h-2]")
1080

1. Cc1ccc(C(=O)Nc2cc(CN3CCN(C)CC3)cc(C(F)(F)F)c2)cc1Oc1nc(-c2ccncc2)nc2c1cnn2C [II-s-2]
2. CN1CCN(Cc2ccc(NC(=O)c3cccc(Oc4cc(-c5cccnc5)nc5sccc45)c3)cc2C(F)(F)F)CC1 [VII-l-1]
Problem: // which entry reports the smaller GI50, 1 or 2 ? // caller expects the label of the chosen entry
Result: 1
(1: 355 nM, 2: 1350 nM)
